Attribution: patent US6060482A

Entries below carry reported pKi on 5-HT1A receptor (Bos taurus).
Sequence (F6Q2H9 1-422): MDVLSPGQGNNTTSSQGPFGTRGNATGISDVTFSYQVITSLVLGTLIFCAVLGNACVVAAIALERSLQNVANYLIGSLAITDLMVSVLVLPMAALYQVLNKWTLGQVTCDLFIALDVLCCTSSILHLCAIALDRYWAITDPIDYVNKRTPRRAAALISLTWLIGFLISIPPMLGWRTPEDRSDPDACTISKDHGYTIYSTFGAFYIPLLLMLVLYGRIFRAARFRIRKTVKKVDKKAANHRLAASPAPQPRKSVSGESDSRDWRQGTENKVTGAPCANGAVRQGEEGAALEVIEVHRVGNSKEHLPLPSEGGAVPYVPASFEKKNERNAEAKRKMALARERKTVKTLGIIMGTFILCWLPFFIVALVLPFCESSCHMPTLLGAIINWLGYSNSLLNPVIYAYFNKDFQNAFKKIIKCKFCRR
Counter-ions that a name gives are not always drawn.
In textbook form, pKi equals minus log to base ten of the concentration in mol/L.

In [3]: df
Out[3]:
                                   compound  experimental_endpoint  meas_value
0  COc1cccc2c1OC(CN1CCC3(CC1)C(=O)NCN3c1ccccc1)CC2 (centres unmarked) [Example 6]                    pKi        9.00

Alright, here's another compound for you.
Query: Tell me the measured pKi of O=C1NCN(c2ccccc2)C12CCN(CC1CCc3ccccc3O1)CC2 (centres unmarked) [Example 5, HCl salt] , please.
Reply: 9.00

====

Molecular target: dopamine D2 receptor (Rattus norvegicus)
Construct: membranes from the striatum of the rat
Sequence (P61169 whole entry): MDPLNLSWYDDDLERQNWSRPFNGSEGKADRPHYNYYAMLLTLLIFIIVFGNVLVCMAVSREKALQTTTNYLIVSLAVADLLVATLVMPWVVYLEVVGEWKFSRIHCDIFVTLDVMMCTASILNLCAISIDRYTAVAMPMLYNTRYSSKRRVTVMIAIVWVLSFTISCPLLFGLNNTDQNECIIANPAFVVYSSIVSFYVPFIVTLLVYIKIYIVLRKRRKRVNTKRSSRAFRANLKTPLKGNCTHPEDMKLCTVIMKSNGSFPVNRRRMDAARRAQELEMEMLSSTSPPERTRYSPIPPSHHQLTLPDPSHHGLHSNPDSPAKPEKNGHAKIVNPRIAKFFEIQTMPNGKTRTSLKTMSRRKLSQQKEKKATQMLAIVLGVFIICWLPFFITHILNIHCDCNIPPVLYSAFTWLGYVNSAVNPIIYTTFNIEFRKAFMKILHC
Experiment: Dopamine D2 receptor test, binding of 3H-sulpiride on membranes from the striatum of the rat
Details: Ki calculated from IC50 of displacement curves
EXPERIMENTAL_ENDPOINT: Ki (pM)
API: value field is a number in pM; no unit string.

Example results:
>>> print(df.to_string())
                                   compound  unit_annotation  meas_value
0  O=C1NCN(c2ccccc2)C12CCN(CC1CCc3ccccc3O1)CC2 (stereo not drawn)               pM         200
1  O=C1NCN(c2ccccc2)C12CCN(C[C@@H]1CCc3ccccc3O1)CC2               pM         600

Proceed to the following item.
Query: Name the recorded Ki for COc1cccc2c1OC(CN1CCC3(CC1)C(=O)NCN3c1ccccc1)CC2 (stereo not drawn) .
Reply: 300
